Origin of values: patent US8633005B2

# Tested on: ICM-forming enzyme
# test method notes: Effects of metal ions on the enzyme activity
# Format: biochemical, Bacillus circulans AM7
# experimental setup: 1 mM metal salt
endpoint: Inhibition of ICM-forming enzyme activity

- smiles: "[Cl][Hg][Cl]"
  observed: "45%"
- smiles: "[Cl][Cu][Cl]"
  observed: "about 20%"
- smiles: "[Cl][Fe]([Cl])[Cl]"
  observed: "about 20%"

---

# Test system: ICM-forming enzyme
# test method notes: Effects of metal ions on the enzyme activity
# Assay type: biochemical, Bacillus circulans AM7
# experimental setup: 1 mM metal salt; None = 100
I'd appreciate it if you could supply Relative activity values for the items below.
Answers are plain numbers, in %.

Please review the entries below; each comes with its answer.
- smiles: "[Cl][Fe][Cl]"
  Relative activity / %: 94
- smiles: "[Ba+2].[Cl-].[Cl-]"
  Relative activity / %: 99
- smiles: "O=C(O)CN(CCN(CC(=O)O)CC(=O)O)CC(=O)O"
  Relative activity / %: 86
- smiles: "[Cl][Al]([Cl])[Cl]"
  Relative activity / %: 106
- smiles: "[Cl][Ni][Cl]"
  Relative activity / %: 105
- smiles: "[Ca+2].[Cl-].[Cl-]"
  Relative activity / %: 105

[Cl][Fe]([Cl])[Cl] has a reported Relative activity of 82

---

# Tested on: ICM-forming enzyme
# test method notes: Action on various saccharides (substrate specificity, TLC)
# Assay type: biochemical, Bacillus circulans AM7
# Design: key: −: Not changed; +: Spot of substrate is slightly decreased and the formation of ICM are detected; ++: Spot of substrate is markedly decreased and the formation of ICM are detected; +++: Spot of substrate is virtually disappeared and the formation of ICM are detected
# experimental setup: substrate 2% (w/v), one unit/g-substrate enzyme, 40° C., pH 6.0, 24 hours

- molecule: "OC[C@H]1O[C@@H]2O[C@H]3[C@H](O)[C@@H](O)[C@@H](O[C@H]4[C@H](O)[C@@H](O)[C@@H](O[C@H]5[C@H](O)[C@@H](O)[C@@H](O[C@H]6[C@H](O)[C@@H](O)[C@@H](O[C@H]7[C@H](O)[C@@H](O)[C@@H](O[C@H]8[C@H](O)[C@@H](O)[C@@H](O[C@H]9[C@H](O)[C@@H](O)[C@@H](O[C@H]1[C@H](O)[C@H]2O)O[C@@H]9CO)O[C@@H]8CO)O[C@@H]7CO)O[C@@H]6CO)O[C@@H]5CO)O[C@@H]4CO)O[C@@H]3CO [γ-CD, γ-cyclodextrin]"
  target or system: "ICM-forming enzyme"
  Action: "−"
- molecule: "OC[C@H]1O[C@@H]2O[C@H]3[C@H](O)[C@@H](O)[C@@H](O[C@H]4[C@H](O)[C@@H](O)[C@@H](O[C@H]5[C@H](O)[C@@H](O)[C@@H](O[C@H]6[C@H](O)[C@@H](O)[C@@H](O[C@H]7[C@H](O)[C@@H](O)[C@@H](O[C@H]8[C@H](O)[C@@H](O)[C@@H](O[C@H]1[C@H](O)[C@H]2O)O[C@@H]8CO)O[C@@H]7CO)O[C@@H]6CO)O[C@@H]5CO)O[C@@H]4CO)O[C@@H]3CO [β-CD, β-cyclodextrin]"
  target or system: "ICM-forming enzyme"
  Action: "−"

---

# Tested on: ICM-forming enzyme
# test method notes: Effects of metal ions on the enzyme activity
# Assay type: biochemical, Bacillus circulans AM7
# experimental setup: 1 mM metal salt; None = 100
What Relative activity was measured for each of the following?
Numbers only, in %.

Record excerpt, results attached:
- smiles: "[Cl][Pb][Cl]"
  measure unit: "%"
  Relative activity: 130
- smiles: "[Cl-].[Cl-].[Zn+2]"
  measure unit: "%"
  Relative activity: 113
- smiles: "[Cl-].[Cl-].[Sr+2]"
  measure unit: "%"
  Relative activity: 100
- smiles: "[Cl][Cu][Cl]"
  measure unit: "%"
  Relative activity: 79
- smiles: "[Cl][Mn][Cl]"
  measure unit: "%"
  Relative activity: 108

Please give Relative activity, item by item, for the list that follows.
1. [Cl][Hg][Cl]
2. [Cl-].[Cl-].[Mg+2]

1: 55; 2: 110

---

# System: ICM-forming enzyme
# test method notes: Action on various saccharides (substrate specificity, TLC)
# Assay type: biochemical, Bacillus circulans AM7
# Design: key: −: Not changed; +: Spot of substrate is slightly decreased and the formation of ICM are detected; ++: Spot of substrate is markedly decreased and the formation of ICM are detected; +++: Spot of substrate is virtually disappeared and the formation of ICM are detected
# experimental setup: substrate 2% (w/v), one unit/g-substrate enzyme, 40° C., pH 6.0, 24 hours
endpoint: Action

- compound: "OC[C@H]1O[C@H](O[C@H]2[C@H](O)[C@@H](CO)OC(O)[C@@H]2O)[C@H](O)[C@@H](O)[C@@H]1O (stereo partly drawn)"
  endpoint: "Action"
  observed: "−"
- compound: "OC[C@H]1O[C@H](O[C@H]2[C@H](O)[C@@H](O)[C@@H](OC[C@H]3OC(O)[C@H](O)[C@@H](O)[C@@H]3O)O[C@@H]2CO)[C@H](O)[C@@H](O)[C@@H]1O (stereo partly drawn)"
  endpoint: "Action"
  observed: "−"
- compound: "OC[C@@H](O)[C@@H](O[C@H]1O[C@H](CO)[C@@H](O)[C@H](O)[C@H]1O)[C@H](O)[C@@H](O)CO"
  endpoint: "Action"
  observed: "−"
